Hello, the source for this data is ChEMBL document CHEMBL2057072, in case you need it.

- Assayed System: D(1A) dopamine receptor (Homo sapiens, UniProt P21728)
- Sequence (P21728 whole entry): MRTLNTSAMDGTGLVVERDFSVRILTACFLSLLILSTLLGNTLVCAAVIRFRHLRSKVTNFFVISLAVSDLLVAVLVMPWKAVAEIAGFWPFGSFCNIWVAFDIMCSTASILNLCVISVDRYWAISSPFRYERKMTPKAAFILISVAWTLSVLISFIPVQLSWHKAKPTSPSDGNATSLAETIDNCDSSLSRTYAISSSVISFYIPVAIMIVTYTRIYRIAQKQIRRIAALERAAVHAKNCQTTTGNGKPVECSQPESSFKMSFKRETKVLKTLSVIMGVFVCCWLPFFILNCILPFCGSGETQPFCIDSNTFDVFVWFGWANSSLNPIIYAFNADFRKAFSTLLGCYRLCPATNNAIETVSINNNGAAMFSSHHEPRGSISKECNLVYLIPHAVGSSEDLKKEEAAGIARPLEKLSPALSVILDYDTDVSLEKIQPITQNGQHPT
- Procedure Summary: Displacement of [3H]SCH23390 from human dopamine D1 receptor expressed in HEK293 cells
Experimental Endpoint: Ki (nM)

[a] COc1cc(OC)c2c(c1CO)C[C@H]1c3cc4c(cc3CCN1C2)OCO4
[b] COc1cc2c(c(OC)c1)CN1CCc3cc(OC)c(O)c(OC)c3[C@@H]1C2
[c] COc1cc2c(c(OC)c1)CN1CCc3cc(OC)cc(OC)c3[C@@H]1C2
[in] Sort the 3 compounds by Ki; largest first, smallest last. Hello, could you send the labels back in the order asked? Thank you.
[out] a, b, c
(a: 182 nM, b: 52.3 nM, c: 7.97 nM)
